- Species: Rattus norvegicus
- protocol-notes: Ratio of agonist to that of antagonist activity
- Format: functional
assay-readout: Ratio
When you answer, write just the number.

Problem: Endpoint output: Ratio of "COc1ccc2c(c1)[C@]13CCN(CC4CC4)[C@H](C2)[C@@H]1[C@@H](C)CC(=O)C3" . Value?
Solution: 0.17

Problem: Endpoint output: Ratio of "C[C@H]1CC(=O)C[C@]23CCN(CC4CC4)[C@H](Cc4ccc(O)cc42)[C@H]13" . Value?
Solution: 5.7

Problem: Endpoint output: Ratio of Oc1ccc2c(c1)[C@@]13CCCC[C@@]1(O)[C@@H](C2)N(CC1CCC1)CC3 [BUTORPHANOL] . Value?
Solution: 0.17

Problem: Endpoint output: Ratio of CC[C@H]1CC(=O)CC23CCN(CC4CCC4)C(Cc4ccc(O)cc42)[C@H]13.Cl (some centres undefined) . Value?
Solution: 0.65

Problem: Endpoint output: Ratio of O=C1CC[C@H]2C3Cc4ccc(O)cc4C2(CCN3CC2CC2)C1 (some centres undefined) . Value?
Solution: 0.44

Problem: Endpoint output: Ratio of C[C@H]1[C@H]2Cc3ccc(O)cc3[C@]1(C)CCN2CC1CC1 [CYCLAZOCINE] . Value?
Solution: 0.5

Problem: Endpoint output: Ratio of Cl.O=C1CC[C@@H]2C3Cc4ccc(O)cc4C2(CCN3CC2CC2)C1 (some centres undefined) . Value?
Solution: 4

Problem: Endpoint output: Ratio of C[C@H]1CC(=O)CC23CCN(CC4CCC4)C(Cc4ccc(O)cc42)[C@H]13.Cl (some centres undefined) . Value?
Solution: 0.1

Problem: Endpoint output: Ratio of COc1ccc2c(c1)C13CCN(CC4CC4)C(C2)[C@@H]1CCC(=O)C3.Cl (some centres undefined) . Value?
Solution: 0.04
